# Test system: Saccharomyces cerevisiae;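 note: PSI is a weighted mean of sequencing reads over stability bins, variants kept only with over 10 reads, mCherry proximal and sfGFP distal, peptide attached via GGGS linker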
# protocol_notes: protein stability index of tFT-peptide fusion (C-terminal peptide) (PSI (0-1 scale)); higher = more stable (slower turnover)
# test_settings: genetic background: wild type; temperature: 30 C
Label MET for high-side protein stability index (at or above 0.7) and NOT MET for low-side protein stability index (below it).

Use these answered entries as a reference point.
| entry_sequence | test_target | label |
| --- | --- | --- |
| PPRPSPPPPPRS | Saccharomyces cerevisiae | MET |
| PSRIRPPTASPP | Saccharomyces cerevisiae | MET |
| KEILTNNQKGQD | Saccharomyces cerevisiae | NOT MET |
| PCGGVGRECVRG | Saccharomyces cerevisiae | MET |
| TGPGCWVCCVGE | Saccharomyces cerevisiae | NOT MET |

Identify whether the reported protein stability index of the following sequence is 0.7 or greater: LPPSTSPPIRPP NOT MET

Given the entry WFPPLPPPPPPS , answer whether its protein stability index meets or surpasses 0.7. MET

Threshold query (protein stability index >= 0.7) on LFVHTPCPFEVR NOT MET

Could you tell me if the measured protein stability index of FLPHLMCVFSFC reaches 0.7 or more? NOT MET

Has DSFGSERYEPCK a recorded protein stability index greater than or equal to 0.7? NOT MET

Recorded values, source the supplement of paper PMC10724198.
